Entries annotated with measured Papp
Test: SUPPLEMENTARY: PAMPA permeability assay
Type: physicochemical
Settings: read-out: Permeability
measured metric: Papp

- Cc1cc(-c2nc([C@H]3CCCCN3C(=O)COc3ccccc3)no2)on1: 9.63 ×10⁻⁶ cm/s
- O=C(COc1ccccc1)N1CCCC[C@@H]1c1nc(-c2cccc(-n3cn[nH]c3=O)c2)no1: 4.87 ×10⁻⁶ cm/s
- Cn1cc(S(=O)(=O)c2cccc(Cl)c2)c2cc(C(=O)Nc3ccc(C(=O)O)cc3)ccc21: 1.01 ×10⁻⁶ cm/s
- Cc1cc(-c2nc([C@H]3CCCCN3C(=O)COc3ccccc3)no2)[nH]n1: 6.09 ×10⁻⁶ cm/s
- COc1ccc(Cl)cc1S(=O)(=O)N1CCc2ccc(C#Cc3ccc(C(=O)O)cc3)cc21: 0.26 ×10⁻⁶ cm/s
- COc1ccc(Cl)cc1CN1C(=O)CSc2ccc(C(=O)Nc3nc(CC(=O)O)cs3)cc21: 1.53 ×10⁻⁶ cm/s
- COc1ccc(Cl)cc1S(=O)(=O)N1COc2ccc(C(=O)Nc3ccn(CC(=O)O)n3)cc21: 0.03 ×10⁻⁶ cm/s
- O=C([C@H]1CCCCN1C(=O)COc1ccccc1)N1Cc2cc(Cl)c(N3CCOCC3)cc2C1: 5.91 ×10⁻⁶ cm/s
- COc1ccc(Cl)cc1S(=O)(=O)n1ccc2ccc(C(=O)Nc3ccc(CC(=O)O)cc3)cc21: 1.98 ×10⁻⁶ cm/s

---

Test: SUPPLEMENTARY: Lyophilisation Solubility Assay (LYSA)
Type: physicochemical
Conditions: read-out: Kinetic_solubility
measured metric: solubility kinetic (mg/mL)

• COc1ccc(Cl)cc1S(=O)(=O)N1CCSc2ccc(C(=O)Nc3ccc(C(=O)O)c(F)c3)cc21 = 0.007
• COc1ccc(Cl)cc1Cc1c[nH]c2ccc(C(=O)Nc3ccc(CC(=O)O)cc3)cc12 = 0.319
• COCCN(c1cc(C(=O)Nc2nc(CC(=O)O)cs2)cc2c1OCO2)S(=O)(=O)c1cc(Cl)ccc1OC = 0.238
• COc1ccc(Cl)cc1S(=O)(=O)N1CC(C(=O)O)Oc2ccc(C(=O)Nc3ccc(F)cc3)cc21 (centres undefined) = 0.347
• COc1ccc(Cl)cc1S(=O)(=O)N1CCS(=O)(=O)c2ccc(C(=O)Nc3ccc(C(=O)O)c(Cl)c3)cc21 = 0.045
• O=C(COc1ccccc1)N1CCCC[C@@H]1c1csc(-c2ccccn2)n1 = 0.018
• O=C(O)c1ccc(NC(=O)c2ccc3c(c2)N(Cc2cccc(Cl)c2)C(=O)CS3(=O)=O)cc1 = 0.026

---

Biological target: Carnitine O-palmitoyltransferase 1, muscle isoform (Homo sapiens, UniProt Q92523)
Sequence (Q92523 whole entry): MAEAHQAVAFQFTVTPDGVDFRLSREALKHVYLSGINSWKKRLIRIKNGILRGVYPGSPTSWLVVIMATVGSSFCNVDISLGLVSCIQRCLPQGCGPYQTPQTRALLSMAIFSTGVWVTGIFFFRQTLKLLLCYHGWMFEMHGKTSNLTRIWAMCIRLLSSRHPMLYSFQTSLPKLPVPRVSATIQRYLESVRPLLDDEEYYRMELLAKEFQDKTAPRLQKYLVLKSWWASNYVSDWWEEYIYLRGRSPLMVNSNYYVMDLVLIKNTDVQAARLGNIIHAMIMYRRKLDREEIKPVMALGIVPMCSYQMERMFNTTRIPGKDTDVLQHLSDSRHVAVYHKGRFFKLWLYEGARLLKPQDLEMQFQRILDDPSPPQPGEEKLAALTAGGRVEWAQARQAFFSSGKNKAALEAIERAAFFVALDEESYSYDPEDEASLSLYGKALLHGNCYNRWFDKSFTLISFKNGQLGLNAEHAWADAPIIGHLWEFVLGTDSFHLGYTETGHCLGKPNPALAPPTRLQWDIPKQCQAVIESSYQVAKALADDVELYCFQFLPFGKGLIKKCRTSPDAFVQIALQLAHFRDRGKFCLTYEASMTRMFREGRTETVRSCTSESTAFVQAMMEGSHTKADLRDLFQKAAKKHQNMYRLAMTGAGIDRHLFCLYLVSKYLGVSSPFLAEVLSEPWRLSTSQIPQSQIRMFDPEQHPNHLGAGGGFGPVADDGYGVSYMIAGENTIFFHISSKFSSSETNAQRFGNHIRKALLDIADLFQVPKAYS
Assay: SUPPLEMENTARY: Inhibition of Carnitine palmitoyltransferase 1, muscle isoform
Consider the following compounds and their measured IC50 readings.
measured metric: IC50 (µM)

• COc1ccc(Cl)cc1S(=O)(=O)N1CCc2c(C)cc(C(=O)Nc3ccc(C(=O)O)c(Cl)c3)cc21 = 3.53
• COc1ccc(Cl)cc1S(=O)(=O)N1CCSc2ccc(C(=O)Nc3ccc(C(=O)O)c(F)c3)cc21 = 0.4
• O=C(O)c1cccc(-c2nc([C@H]3CCCCN3C(=O)COc3ccccc3)cs2)c1 = 95.9
• O=C(COc1ccccc1)N1CCCC[C@@H]1c1csc(-c2n[nH]c3ccccc23)n1 = 77.3
• CCN(c1cc(C(=O)Nc2nc(CC(=O)O)cs2)cc2c1OCO2)S(=O)(=O)c1cc(Cl)ccc1OC = 1.13
• O=C(Nc1ccc(C(=O)O)c(F)c1)c1ccc2c(c1)N(S(=O)(=O)c1ccc(Cl)c(Cl)c1)CC2 = 4.07
• COc1ccc(C)cc1S(=O)(=O)N1CCCc2ccc(C(=O)Nc3nc(CC(=O)O)cs3)cc21 = 2.4
• O=C(Nc1ccc(C(=O)O)c(F)c1)c1ccc2c(c1)N(S(=O)(=O)c1cccc(Cl)c1)CCO2 = 6.92
• COc1ccc(Cl)cc1S(=O)(=O)N1CCSc2ccc(C(=O)Nc3ccc(CC(=O)O)cc3)cc21 = 0.792
• O=C(COc1ccccc1)N1CCCC[C@@H]1c1nc(-c2ccc(O)cc2)no1 = 39.2
• O=C(Nc1ccc(C(=O)O)c(F)c1)c1ccc2c(c1)N(S(=O)(=O)c1cc(Cl)cc(Cl)c1)CCC2 = 19.6
• COc1ccc(Cl)cc1S(=O)(=O)c1nn(C)c2ccc(C(=O)Nc3ccc(C(=O)O)c(Cl)c3)cc12 = 1.68
• COc1ccc(Cl)cc1S(=O)(=O)N1CCc2ccc(C(=O)Nc3ccc(C(=O)O)c(Cl)c3)cc21 = 0.755
• CC(=O)Nc1cccc(-c2nc([C@H]3CCCCN3C(=O)COc3ccccc3)n(C)n2)c1 = 43.4
• O=C(COc1ccccc1)N1CCCC[C@@H]1C#Cc1ccc2[nH]cnc2c1 = 7.31
• COc1ccc(Cl)cc1S(=O)(=O)N1CCNc2ccc(C(=O)Nc3ccc(C(=O)O)c(F)c3)cc21 = 6.42
• COc1ccc(Cl)cc1S(=O)(=O)Nc1cccc(C(=O)Nc2ccc(-c3nnn[nH]3)cc2)c1 = 0.674
• COc1ccc(Cl)cc1S(=O)(=O)N(C)c1cc(C(=O)Nc2ccc(C(=O)O)cc2)cc2c1OCCO2 = 4.05
